system: OVCAR-3; assay: NCI tumour cell line growth inhibition, 48 h
Activity calls are given as the source filed them. Cut-off read from the data, not from the text of the source: active = GI50 up to about 1.1 µM and inactive = higher.
Result Type: GI50

{"columns": ["Compound", "Observed Result"],
 "data": [
  ["O=C(O)CNC(=O)c1ccccc1O", "> 100 µM (inactive)"],
  ["Cc1cc(OC2OC(CO)C(O)C(O)C2O)ccc1O (stereo unspecified)", "> 100 µM (inactive)"],
  ["COc1cc2c(cc1OC)C(C(CO)CO)N(CC(O)CCl)CC2 (stereo unspecified)", "> 100 µM (inactive)"],
  ["CC[C@@H]1OC2(C)CC(S(=O)(=O)c3ccccc3O)CC1O2 (stereo partly specified)", "> 100 µM (inactive)"],
  ["O=S(=O)(O)c1cc(O)c(/N=N/c2ccc(O)cc2O)c2ccccc12", "27.2 µM (inactive)"],
  ["COC(=O)C(Cc1ccc2c(c1)CCC2)Cc1ccc2c(c1)CCC2", "85.1 µM (inactive)"]
]}
